TARGET_OR_TEST_SYSTEM: Prostaglandin E2 receptor EP4 subtype (Rattus norvegicus) (UniProt P43114)
Sequence (P43114 whole entry): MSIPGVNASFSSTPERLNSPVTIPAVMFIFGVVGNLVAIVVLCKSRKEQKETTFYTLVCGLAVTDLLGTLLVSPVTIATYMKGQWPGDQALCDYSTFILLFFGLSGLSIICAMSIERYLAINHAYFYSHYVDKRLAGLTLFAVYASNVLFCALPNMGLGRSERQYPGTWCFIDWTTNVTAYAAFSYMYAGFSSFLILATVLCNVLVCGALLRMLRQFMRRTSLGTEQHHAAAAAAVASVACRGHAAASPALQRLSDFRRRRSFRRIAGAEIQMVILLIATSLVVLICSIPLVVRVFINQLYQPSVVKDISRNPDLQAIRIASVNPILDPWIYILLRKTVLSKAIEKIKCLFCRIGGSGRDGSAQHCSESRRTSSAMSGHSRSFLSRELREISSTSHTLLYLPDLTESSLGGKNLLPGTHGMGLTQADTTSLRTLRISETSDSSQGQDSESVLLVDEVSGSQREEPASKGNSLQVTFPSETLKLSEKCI
ASSAY_PROTOCOL: Activity at rat EP4 transfected in HEK293 cells by cAMP accumulation compared to PGE2
Type: functional, cell-based
Response field label takes Condition met when Activity is strictly below 90% and Condition not met in all other cases.

COMPOUND: O=C(O)c1ccc(CCCN2C(=O)CCC2CCC(O)Cc2cccc(-c3ccccc3)c2)cc1 (configuration not stated)
CATEGORY_LABEL: Condition not met

I wonder whether N#Cc1cccc(C[C@H](O)CC[C@H]2CCC(=O)N2CCCCCCC(=O)O)c1 has Activity below 90%. Can you tell?
Condition not met

Determine if O=C(O)c1ccc(CCCN2C(=O)CC[C@@H]2CCC(O)Cc2cccc(F)c2)s1 (some centres not stated) shows Activity strictly lower than 90%.
Condition not met

Threshold test, Activity < 90%: O=C(O)c1ccc(CCCN2C(=O)CC[C@@H]2CCC(O)Cc2cccc(-c3ccccc3)c2)s1 (some centres not stated)
Condition not met

I wonder whether CCc1ccc(CC(O)CC[C@H]2CCC(=O)N2CCCc2ccc(C(=O)O)s2)cc1 (some centres not stated) has Activity below 90%. Can you tell?
Condition met

Hello, I'm reviewing records and need to know if Activity of O=C(O)CCCCCCN1C(=O)CC[C@@H]1CC[C@@H](O)Cc1cccc(OC(F)(F)F)c1 is below 90%. Could you check?
Condition met

Problem: For the compound O=C(O)c1ccc(CCCN2C(=O)CCC2CCC(O)Cc2cccc(Cl)c2)cc1 (configuration not stated) , is Activity under 90%?
Condition not met

Take the compound O=C(O)c1ccc(CCCN2C(=O)CC[C@@H]2CC[C@@H](O)Cc2ccc(F)cc2)s1 and say whether its Activity is less than 90%.
Condition met

Problem: For the compound O=C(O)CCCCCCN1C(=O)CC[C@@H]1CC[C@@H](O)Cc1cccc(-c2ccccc2)c1 , is Activity under 90%?
Condition not met
